Protocol Text: in vivo
Run Conditions: male, RoRo Fuellinsdorf, rat, in vivo, po, 10 mg/kg, Tmax
Measure: Tmax (h)
Expressed in h, but write only the number.

Name the recorded Tmax for Cc1ccccc1-c1cc(N2CCN(C)CC2)ncc1N(C)C(=O)C(C)(C)c1cc(C(F)(F)F)cc(C(F)(F)F)c1 [Free Base] .
2.2

====

Protocol Text: in vivo
Run Conditions: male, dog, in vivo, po, oral (systemic) bioavailability
Measure: bioavailability

Name the recorded bioavailability for Cc1ccccc1-c1cc(N2CCN(C)CC2)ncc1N(C)C(=O)C(C)(C)c1cc(C(F)(F)F)cc(C(F)(F)F)c1 [Free Base] .
34 to 83%

====

Protocol Text: in vivo
Run Conditions: male, dog, in vivo, po, 70 mg, F (oral bioavailability)
Measure: bioavailability (%)
Expressed in %, but write only the number.

Name the recorded bioavailability for Cc1ccccc1-c1cc(N2CCN(C)CC2)ncc1N(C)C(=O)C(C)(C)c1cc(C(F)(F)F)cc(C(F)(F)F)c1 [Free Base] .
64

====

Protocol Text: in vivo
Run Conditions: male, RoRo Fuellinsdorf, rat, in vivo, po, 9.4 mg/kg, Cmax
Measure: Cmax (ng/mL)
Expressed in ng/mL, but write only the number.

Name the recorded Cmax for Cc1ccccc1-c1cc(N2CCN(C)CC2)ncc1N(C)C(=O)C(C)(C)c1cc(C(F)(F)F)cc(C(F)(F)F)c1 [Formula I] .
991

====

Protocol Text: in vivo
Run Conditions: male, dog, in vivo, po, 120 mg, T1/2
Measure: half-life (h)
Expressed in h, but write only the number.

Name the recorded half-life for Cc1ccccc1-c1cc(N2CCN(C)CC2)ncc1N(C)C(=O)C(C)(C)c1cc(C(F)(F)F)cc(C(F)(F)F)c1 [Free Base] .
39.5

====

Protocol Text: in vivo
Run Conditions: male, RoRo Fuellinsdorf, rat, in vivo, ip, 9.4 mg/kg, Tmax
Measure: Tmax

Name the recorded Tmax for Cc1ccccc1-c1cc(N2CCN(C)CC2)ncc1N(C)C(=O)C(C)(C)c1cc(C(F)(F)F)cc(C(F)(F)F)c1 .
≤ 15 min

====

Protocol Text: in vivo
Run Conditions: male, RoRo Fuellinsdorf, rat, in vivo, iv
Measure: clearance (mL/min/kg)
Expressed in mL/min/kg, but write only the number.

Name the recorded clearance for Cc1ccccc1-c1cc(N2CCN(C)CC2)ncc1N(C)C(=O)C(C)(C)c1cc(C(F)(F)F)cc(C(F)(F)F)c1 .
6

====

Protocol Text: in vivo
Run Conditions: male, RoRo Fuellinsdorf, rat, in vivo, ip, 9.4 mg/kg, Cmax
Measure: Cmax (ng/mL)
Expressed in ng/mL, but write only the number.

Name the recorded Cmax for Cc1ccccc1-c1cc(N2CCN(C)CC2)ncc1N(C)C(=O)C(C)(C)c1cc(C(F)(F)F)cc(C(F)(F)F)c1 .
1610

====

Protocol Text: in vivo
Run Conditions: male, dog, in vivo, po, 70 mg, Tmax
Measure: Tmax

Name the recorded Tmax for Cc1ccccc1-c1cc(N2CCN(C)CC2)ncc1N(C)C(=O)C(C)(C)c1cc(C(F)(F)F)cc(C(F)(F)F)c1 [Free Base] .
4 to 6 h

====

Protocol Text: in vivo
Run Conditions: male, RoRo Fuellinsdorf, rat, in vivo, iv, 9.4 mg/kg, mean apparent terminal half-life
Measure: half-life (h)
Expressed in h, but write only the number.

Name the recorded half-life for Cc1ccccc1-c1cc(N2CCN(C)CC2)ncc1N(C)C(=O)C(C)(C)c1cc(C(F)(F)F)cc(C(F)(F)F)c1 .
19.5

====

Protocol Text: in vivo
Run Conditions: male, RoRo Fuellinsdorf, rat, in vivo, ip, 9.4 mg/kg, AUC (0-24 h)
Measure: AUC(0-t) (ng·h/mL)
Expressed in ng·h/mL, but write only the number.

Name the recorded AUC(0-t) for Cc1ccccc1-c1cc(N2CCN(C)CC2)ncc1N(C)C(=O)C(C)(C)c1cc(C(F)(F)F)cc(C(F)(F)F)c1 .
26800

====

Protocol Text: in vivo
Run Conditions: male, dog, in vivo, po, 70 mg, T1/2
Measure: half-life

Name the recorded half-life for Cc1ccccc1-c1cc(N2CCN(C)CC2)ncc1N(C)C(=O)C(C)(C)c1cc(C(F)(F)F)cc(C(F)(F)F)c1 [Free Base] .
40.4 h

====

Protocol Text: in vivo
Run Conditions: male, RoRo Fuellinsdorf, rat, in vivo, po, 9.4 mg/kg, Tmax
Measure: Tmax

Name the recorded Tmax for Cc1ccccc1-c1cc(N2CCN(C)CC2)ncc1N(C)C(=O)C(C)(C)c1cc(C(F)(F)F)cc(C(F)(F)F)c1 .
2 h

====

Protocol Text: in vivo
Run Conditions: male, RoRo Fuellinsdorf, rat, in vivo, iv
Measure: Vd (L/kg)
Expressed in L/kg, but write only the number.

Name the recorded Vd for Cc1ccccc1-c1cc(N2CCN(C)CC2)ncc1N(C)C(=O)C(C)(C)c1cc(C(F)(F)F)cc(C(F)(F)F)c1 .
12

====

Protocol Text: Approximate solubility in water at rt
Type: physicochemical
Measure: solubility

Name the recorded solubility for Cc1ccccc1-c1cc(N2CCN(C)CC2)ncc1N(C)C(=O)C(C)(C)c1cc(C(F)(F)F)cc(C(F)(F)F)c1 [Form III] .
< 1000 µg/mL

====

Protocol Text: Brain and CSF penetration after intravenous administration in rats
Format: in vivo
Run Conditions: male, RoRo Fuellinsdorf, rat, brain homogenate / plasma, i.v., approximately 0.25, 0.5, 1 and 2 h, read-out: ratios of brain homogenate/plasma concentrations
Measure: Kp

Name the recorded Kp for Cc1ccccc1-c1cc(N2CCN(C)CC2)ncc1N(C)C(=O)C(C)(C)c1cc(C(F)(F)F)cc(C(F)(F)F)c1 .
2.4 to 4.9

====

Protocol Text: in vivo
Run Conditions: male, dog, in vivo, po, 70 mg, Cmax
Measure: Cmax
Hi, when you answer, please include the unit after the number. Thanks!

Name the recorded Cmax for Cc1ccccc1-c1cc(N2CCN(C)CC2)ncc1N(C)C(=O)C(C)(C)c1cc(C(F)(F)F)cc(C(F)(F)F)c1 [Free Base] .
587 ng/mL

====

Protocol Text: in vivo
Run Conditions: male, dog, in vivo, po, apparent terminal half-lives
Measure: half-life

Name the recorded half-life for Cc1ccccc1-c1cc(N2CCN(C)CC2)ncc1N(C)C(=O)C(C)(C)c1cc(C(F)(F)F)cc(C(F)(F)F)c1 [Free Base] .
36 to 56 h

====

Protocol Text: in vivo
Run Conditions: male, dog, in vivo, po, 70 mg, AUC (0-Inf.)
Measure: AUC(0-inf)
Hi, when you answer, please include the unit after the number. Thanks!

Name the recorded AUC(0-inf) for Cc1ccccc1-c1cc(N2CCN(C)CC2)ncc1N(C)C(=O)C(C)(C)c1cc(C(F)(F)F)cc(C(F)(F)F)c1 [Free Base] .
19300 ng·h/mL
